PROCEDURE SUMMARY: Chemical stability of the compound at pH 2 phosphate buffer assessed as time required for 90% hydrolytic degradation at 100 ug/ml and 40 degreeC by UPLC-UV analysis
Type: physicochemical
RECORDED CONDITIONS: in the assay text read “10% hydrolytic degradation” for “90% hydrolytic degradation”, dose 100 µg/ml
PROPERTY NAME: Time (h)
Dear colleague, please return just the value in h, with no unit written.

> print(dat)
                                   molecule  property.name  reported.measurement
1  N#Cc1c(N)nc(N)nc1N[C@H](c1nc2c(F)ccc(Cl)c2c(=O)n1-c1cccnc1)C1CC1 [GS-9901]           Time                   3.1
2  CC[C@H](Nc1nc(N)nc(N)c1C#N)c1nc2cccc(Cl)c2c(=O)n1-c1cccnc1           Time                  0.65
3  N#Cc1c(N)nc(N)nc1N[C@H](c1nc2cccc(Cl)c2c(=O)n1-c1cccnc1)C1CC1           Time                   0.5

Moving on to another molecule below.
I am curious: what Time value has been reported for `C[C@H](Nc1nc(N)nc(N)c1C#N)c1nc2c(Cl)ccc(Cl)c2c(=O)n1-c1cccnc1` ? 2.3
